Values from patent US10246453B2

Give measured IC50 for each item. Keep answers brief.
# Assay System: NaV1.5 (Homo sapiens (Human), UniProt Q14524)
# Sequence (Q14524 other isoform, or with tags, fused parts or gaps): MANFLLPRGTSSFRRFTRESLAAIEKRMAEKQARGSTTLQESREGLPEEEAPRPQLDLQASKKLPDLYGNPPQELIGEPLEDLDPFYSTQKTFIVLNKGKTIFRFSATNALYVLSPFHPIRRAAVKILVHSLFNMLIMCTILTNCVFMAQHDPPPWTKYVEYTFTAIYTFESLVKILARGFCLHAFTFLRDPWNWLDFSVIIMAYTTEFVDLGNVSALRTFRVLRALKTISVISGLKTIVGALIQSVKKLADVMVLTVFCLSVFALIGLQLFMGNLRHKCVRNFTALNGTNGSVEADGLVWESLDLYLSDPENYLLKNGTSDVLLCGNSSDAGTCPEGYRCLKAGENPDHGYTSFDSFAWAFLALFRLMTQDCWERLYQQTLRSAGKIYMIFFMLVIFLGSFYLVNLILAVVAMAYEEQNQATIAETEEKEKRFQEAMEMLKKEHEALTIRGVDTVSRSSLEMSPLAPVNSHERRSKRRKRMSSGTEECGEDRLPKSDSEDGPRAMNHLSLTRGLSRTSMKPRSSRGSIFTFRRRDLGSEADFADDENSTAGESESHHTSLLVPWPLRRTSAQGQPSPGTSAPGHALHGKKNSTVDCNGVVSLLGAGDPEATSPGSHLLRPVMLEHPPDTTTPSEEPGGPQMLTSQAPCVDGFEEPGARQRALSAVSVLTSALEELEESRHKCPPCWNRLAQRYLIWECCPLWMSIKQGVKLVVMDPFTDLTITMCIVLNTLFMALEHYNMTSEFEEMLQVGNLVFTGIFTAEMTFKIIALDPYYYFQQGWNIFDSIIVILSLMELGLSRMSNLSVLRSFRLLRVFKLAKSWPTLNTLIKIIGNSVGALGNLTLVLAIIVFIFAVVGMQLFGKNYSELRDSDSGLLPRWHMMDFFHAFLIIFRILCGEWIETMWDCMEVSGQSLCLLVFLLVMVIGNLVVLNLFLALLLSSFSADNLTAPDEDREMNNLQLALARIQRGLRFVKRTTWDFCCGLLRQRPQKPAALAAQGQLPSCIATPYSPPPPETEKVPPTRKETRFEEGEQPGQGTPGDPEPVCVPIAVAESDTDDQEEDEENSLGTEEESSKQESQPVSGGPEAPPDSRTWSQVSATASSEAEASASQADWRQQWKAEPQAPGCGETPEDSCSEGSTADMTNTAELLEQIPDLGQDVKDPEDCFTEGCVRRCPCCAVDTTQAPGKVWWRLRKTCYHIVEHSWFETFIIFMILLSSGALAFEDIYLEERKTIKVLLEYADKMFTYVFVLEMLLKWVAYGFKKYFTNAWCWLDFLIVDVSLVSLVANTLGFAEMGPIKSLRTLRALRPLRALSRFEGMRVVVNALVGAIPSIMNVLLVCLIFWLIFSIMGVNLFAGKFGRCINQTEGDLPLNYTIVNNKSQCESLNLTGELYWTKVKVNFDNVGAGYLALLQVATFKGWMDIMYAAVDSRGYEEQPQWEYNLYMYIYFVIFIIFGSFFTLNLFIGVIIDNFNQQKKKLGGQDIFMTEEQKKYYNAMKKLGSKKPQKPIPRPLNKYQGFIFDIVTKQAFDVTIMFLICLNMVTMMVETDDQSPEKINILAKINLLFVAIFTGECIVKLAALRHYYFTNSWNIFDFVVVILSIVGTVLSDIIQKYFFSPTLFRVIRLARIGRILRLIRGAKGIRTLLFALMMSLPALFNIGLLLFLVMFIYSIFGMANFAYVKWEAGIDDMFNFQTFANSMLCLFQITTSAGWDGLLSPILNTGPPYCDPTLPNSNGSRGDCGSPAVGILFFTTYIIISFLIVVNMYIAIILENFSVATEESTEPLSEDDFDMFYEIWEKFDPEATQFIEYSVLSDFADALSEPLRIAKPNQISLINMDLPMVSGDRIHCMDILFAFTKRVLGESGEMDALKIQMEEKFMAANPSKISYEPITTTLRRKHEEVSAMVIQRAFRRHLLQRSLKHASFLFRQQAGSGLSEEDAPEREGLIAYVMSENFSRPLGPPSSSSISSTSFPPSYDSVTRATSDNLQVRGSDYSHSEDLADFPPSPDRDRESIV
# Experimental Details: Sodium Influx Assay (Flux), NaV1.5
# Assay Conditions: read-out: Flux NaV1.5 IC50; Trex HEK293 cells, ANG2 dye; arithmetic mean
Give the quantity in µM, number only.

Exercise: State IC50 on NaV1.5 (Homo sapiens (Human), UniProt Q14524). Entry: O=S(=O)(Nc1nccs1)c1ccc(N[C@@H]2CCN(Cc3ccccc3F)C2)c(Cl)c1 [Example 71]
Key: 9.27

Exercise: State IC50 on NaV1.5 (Homo sapiens (Human), UniProt Q14524). Entry: CN(c1ccc(S(=O)(=O)Nc2ncns2)cc1Cl)[C@H]1CCN(Cc2cccc(Cl)c2F)C1 [Example 32]
Key: 7.41

Exercise: State IC50 on NaV1.5 (Homo sapiens (Human), UniProt Q14524). Entry: Cc1ccccc1CN1CC[C@H](N(C)c2cc(F)c(S(=O)(=O)Nc3cscn3)cc2C)C1 [Example 148]
Key: 12.4

Exercise: State IC50 on NaV1.5 (Homo sapiens (Human), UniProt Q14524). Entry: Cc1c(N(C)[C@H]2CCN(Cc3cc(F)ccc3F)C2)cc(F)c(S(=O)(=O)Nc2cscn2)c1F [Example 240, 2,2,2-trifluoroacetate]
Key: 7.46

---

Give measured pIC50 for each item. Keep answers brief.
# Assay System: NaV1.5 (Homo sapiens (Human))
# Experimental Details: Sodium Influx Assay (Flux), NaV1.5
# Assay Conditions: read-out: Flux NaV1.5 IC50; Trex HEK293 cells, ANG2 dye; arithmetic mean
pIC50: −log10 of the molar value.

Exercise: Using the record for Cc1coc(CN2CC[C@H](N(C)c3cc(F)c(S(=O)(=O)Nc4cscn4)cc3C)C2)n1 [Example 139] , state its measured pIC50.
Key: < 4.52

Exercise: Using the record for Cc1cc(C)cc(CN2CC[C@@H](Oc3ccc(S(=O)(=O)Nc4ncns4)cc3Cl)C2)c1 [Example 98, 2,2,2-trifluoroacetate] , state its measured pIC50.
Key: < 4.52

Exercise: Using the record for Cc1cc(S(=O)(=O)Nc2cscn2)c(F)cc1N(C)[C@H]1CCN(Cc2ccnn2CC(F)(F)F)C1 [Example 108] , state its measured pIC50.
Key: < 4.52

---

# Assay System: NaV1.1 (Homo sapiens (Human))
# Experimental Details: Sodium Influx Assay (Flux), NaV1.1
# Assay type: cell-based
# Assay Conditions: Trex HEK293 cells, ANG2 dye; arithmetic mean
Metric: IC50

Exercise: Using the record for C[C@H](c1ccccc1)N1CCC(Oc2ccc(S(=O)(=O)Nc3ccncn3)cc2Cl)CC1 [Example 300] , state its measured IC50.
Key: > 30 µM

Exercise: Using the record for CCN(c1ccc(S(=O)(=O)Nc2ncns2)cc1Cl)[C@H]1CCN(Cc2cccc(C)c2)C1 [Example 37] , state its measured IC50.
Key: > 30 µM

Exercise: Using the record for Cc1cc(S(=O)(=O)Nc2cscn2)c(F)cc1N(C)[C@H]1CCN(Cc2nccs2)C1 [Example 136] , state its measured IC50.
Key: > 30 µM

Exercise: Using the record for Cc1ccnc(CN2CC[C@H](N(C)c3cc(F)c(S(=O)(=O)Nc4cscn4)cc3Cl)C2)c1 [Example 216] , state its measured IC50.
Key: > 30 µM

Exercise: Using the record for O=S(=O)(Nc1nccs1)c1ccc(OC2CCN(Cc3ccncc3)CC2)c(Cl)c1 [Example 63] , state its measured IC50.
Key: > 30 µM
